src = ChEMBL document CHEMBL4261602

# Tested on: Quadruplex DNA
# EXPERIMENT_NOTES: Stabilization of human FAM-5'-d(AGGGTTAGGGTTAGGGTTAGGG)-3'-BHQ1 telomeric G4 quadruplex DNA assessed as change in melting temperature at 1 uM by FRET assay
# Assay type: nucleic-acid assay
METRIC: ΔTm

N=C(N)NCCCNC(=O)c1cc2c(NCCCCCN)c3c(c(NCCCCCN)c2s1)C(=O)c1ccccc1C3=O: 21 °C
N=C(N)NCCCNC(=O)c1cc2c(NCCNC(=N)N)c3c(c(NCCNC(=N)N)c2s1)C(=O)c1ccccc1C3=O: 20.5 °C
N=C(N)NCCNC(=O)c1cc2c(NCCCCCN)c3c(c(NCCCCCN)c2o1)C(=O)c1ccccc1C3=O: 18 °C
N=C(N)NCCCNC(=O)c1cc2c(NCCCCN)c3c(c(NCCCCN)c2s1)C(=O)c1ccccc1C3=O: 22 °C
N=C(N)NCCCNC(=O)c1cc2c(NCCOCCN)c3c(c(NCCOCCN)c2s1)C(=O)c1ccccc1C3=O: 20 °C
N=C(N)NCCNC(=O)c1cc2c(NCCNC(=N)N)c3c(c(NCCNC(=N)N)c2o1)C(=O)c1ccccc1C3=O: 21.3 °C
N=C(N)NCCCNC(=O)c1cc2c(NCCCCCN)c3c(c(NCCCCCN)c2o1)C(=O)c1ccccc1C3=O: 18 °C
N=C(N)NCCNc1c2c(c(NCCNC(=N)N)c3sccc13)C(=O)c1ccccc1C2=O: 11 °C
N=C(N)NCCCNC(=O)c1cc2c(NCCCNC(=N)N)c3c(c(NCCCNC(=N)N)c2o1)C(=O)c1ccccc1C3=O: 25 °C
N=C(N)NCCNC(=O)c1cc2c(NCCNC(=N)N)c3c(c(NCCNC(=N)N)c2s1)C(=O)c1ccccc1C3=O: 20 °C
N=C(N)NCCCNc1c2c(c(NCCCNC(=N)N)c3sc(C(=O)NCCNC(=N)N)cc13)C(=O)c1ccccc1C2=O: 21 °C
N=C(N)NCCCNC(=O)c1cc2c(NCCCNC(=N)N)c3c(c(NCCCNC(=N)N)c2s1)C(=O)c1ccccc1C3=O: 22 °C

###

# EXPERIMENT_NOTES: Stabilization of d(CAATCGGATCGAATTCGATCCGATTG) DNA (unknown origin) assessed as binding constant at 1 uM by FRET assay
METRIC: Kb

N=C(N)NCCNC(=O)c1cc2c(NCCNC(=N)N)c3c(c(NCCNC(=N)N)c2o1)C(=O)c1ccccc1C3=O: 0.02 ×10⁶ /M
N=C(N)NCCNC(=O)c1cc2c(NCCCCCN)c3c(c(NCCCCCN)c2o1)C(=O)c1ccccc1C3=O: 0.03 ×10⁶ /M
N=C(N)NCCCNC(=O)c1cc2c(NCCCCCN)c3c(c(NCCCCCN)c2s1)C(=O)c1ccccc1C3=O: 0.01 ×10⁶ /M
N=C(N)NCCCNC(=O)c1cc2c(NCCCNC(=N)N)c3c(c(NCCCNC(=N)N)c2o1)C(=O)c1ccccc1C3=O: 0.02 ×10⁶ /M

###

# System: Quadruplex DNA
# EXPERIMENT_NOTES: Stabilization of human FAM-5'-d(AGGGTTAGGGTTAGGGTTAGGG)-3'-BHQ1 telomeric G4 quadruplex DNA assessed as change in melting temperature at 1 uM in presence of 50 fold excess of competitor ds26 oligonucleotide DNA by FRET assay
# Format: nucleic-acid assay
# ΔTm values compiled below
METRIC: ΔTm (°C)

N=C(N)NCCCNC(=O)c1cc2c(NCCCCCN)c3c(c(NCCCCCN)c2o1)C(=O)c1ccccc1C3=O: 15
N=C(N)NCCCNc1c2c(c(NCCCNC(=N)N)c3sc(C(=O)NCCNC(=N)N)cc13)C(=O)c1ccccc1C2=O: 21
N=C(N)NCCNc1c2c(c(NCCNC(=N)N)c3sccc13)C(=O)c1ccccc1C2=O: 1
N=C(N)NCCCNC(=O)c1cc2c(NCCCCN)c3c(c(NCCCCN)c2s1)C(=O)c1ccccc1C3=O: 18
